# pKd per entry
Molecular target: T1, Pit-1wt (UniProt P28069 1-291)
T1 sequence: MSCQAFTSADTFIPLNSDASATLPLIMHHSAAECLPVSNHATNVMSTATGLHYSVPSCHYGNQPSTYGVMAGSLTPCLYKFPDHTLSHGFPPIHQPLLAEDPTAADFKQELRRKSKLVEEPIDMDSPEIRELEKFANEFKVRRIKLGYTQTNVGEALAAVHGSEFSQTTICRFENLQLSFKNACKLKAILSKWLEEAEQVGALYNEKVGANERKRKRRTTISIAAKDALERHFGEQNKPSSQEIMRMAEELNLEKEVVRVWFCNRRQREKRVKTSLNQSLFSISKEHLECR
Assay: fluorescence anisotropy
pKd: −log10 of the molar value.
endpoint_label: pKd

binder="f0x (dsDNA) DNA 1: TGTCCTCTTCCTGCTATGTCATGGCTTATCTTCTTTCACCCAGCAGTATTAGTCAATGTCTCTTGTATGCCTGGCACCT DNA 2: AGGTGCCAGGCATACAAGAGACATTGACTAATACTGCTGGGTGAAAGAAGATAAGCCATGACATAGCAGGAAGAGGACA" endpoint_label=pKd assay_value=6.78
binder="f8x (dsDNA) DNA 1: CACCCATTCATTCATTCATTCATTCATTCATTCATTCAG DNA 2: CTGAATGAATGAATGAATGAATGAATGAATGAATGGGTG" endpoint_label=pKd assay_value=7.46

These measurements were taken from paper PMC5778499.
